Cited source for all entries: paper PMC10397247

Biological target: T1, O16-bH
T1 chain: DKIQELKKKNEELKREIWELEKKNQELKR
Assay: two-hybrid library CCNG1;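 note: natural log of median RNA to DNA barcode read ratio; higher means stronger binding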
observable: interaction score

# binder, interaction score
records = [
    ("DEIQELEKKIEELKRKNWELKKKNQELKR [O12-bH]", -0.436),
    ("DKIQELKKEIEELERENWELEKENQELER [O11-bH]", -0.352),
    ("DENQELEKEIEELERENWELEKKIQELKR [O14-bH]", 1.45),
    ("DEIQELEKENEELERKIWELKKENQELER [O15-bH]", 1.62),
]

[P] DKNQELKKENEELERKIWELKKKIQELKR [O10-bH]
[Q] DKNQELKKENEELEREIWELEKEIQELER [O1-bH]
QUERY: Higher interaction score between P and Q ? State your choice using its label.
RESULT: P

[1] DKNQELKKKIEELKRKNWELKKEIQELER [O13-bH]
[2] DKIQELKKKNEELKREIWELEKKNQELKR [O16-bH]
QUERY: Higher interaction score between 1 and 2 ? State your choice using its label.
RESULT: 2
(2: 0.441, 1: -1.44)
